- test name: yeast display, Sf9 membrane polyspecificity reagent, FACS + sequencing; frameworks hold sequencing errors

| item sequence | polyreactivity (PSR sort gate) |
| --- | --- |
| QVQLVESGGGLVQAGGSLRLSCAASGITFLSNAMGWYRQAPGKERELVAAIDWRGDSTYYADSVKGRFTISRDNAKNTGYLQMNRLKPEDTAVYYCNADISGSGQWDGYDYWGQGTQVTVSS | low polyreactivity |
| QVQLVESGGGLVKAGGSLRLSCAASGRNFSQNVMGWYRQAPGKERELVADISRGGSTNYADSVKGRFTISRDNAKNSVFLQMNSLKPEDTAVYYCAARLFWYYYHPYYYWGQGTQVTVSS | high polyreactivity |
| QVQLVESGGVLVQAGGSLRLSCAASGFIFETYVMGWYRQAPGKERELVDAISGGGSTYYADSVKGRFTISRDNAKKTVYLQMNSLKPEDTAVYYCAAKSGSFVHGGYQTPVYGSDYWGQGTQVTVSS | high polyreactivity |
| QVQLVESGGGLVQAGGSLRLSCAASGSILTAYAMGWYRQAPGKERELVAASNFSGDNTYYADSEKGRFTISRDNAKNTVYLQMNSLKPEDTAVYYCNADGRYAYVWYDYWGQGTQVTVSS | low polyreactivity |
| QVQLVESGGGLVQAGGSLRLSCAASGITFAYYAMGWSRQAPGKERELVAAIRWSGGDTYYADSVKGRFTISRDNAKNTVYLQMNSLKPEDTAVYYCAADTTWGYDYWGQGTQVTVSS | low polyreactivity |
| QVQLVESGGGLVQAGGSLRLSCAASGSTISRNAMGWYRQAPGKERELVAAITSRSGRTYYADSVKGRFTISRDNAKNTVYLQMNSLKPEDTAVYYCAATVYQGAYTYQFYWGQGTQVTVSS | high polyreactivity |
| QVQLVESGGGLVQAGGSLRLSCAASGFIFYHNAMGWYRQAPGKERELVAAISQSGGRTYYADSVKGRFTISRDNAKNTVYLQMNSLKPEDTAGYYCAKRTRVYHPTYDYWGQGTQVTVSS | high polyreactivity |
| QVHLVESGGALVQAGRSLRLSCAASGSTFTINVKGWYRQAPGKERELVAAINGGGRTNYADSVKGRFTISRDNAKNTVYLLMNSLKPEDTAVYYCAADGLSNVRQMDYWGQGTQVTVSS | low polyreactivity |
| QVQLVESGGGLVQAGGSLRLSCAASGSIFRGYAMGWYRQAPGKERELVAAITFSGGSTYADSVKGRFTISRDNAKNTVYFQMNSLKPEDTAVYDCAAKRTGHNWFTVYPYYSWGQGTQVTVSS | low polyreactivity |
| QVQLVESGGGLVQAGGSLRLSCAASGFIFGYNAMGWYRQAPGKERELVAAITSRGDRTYYADSVKGRFTISRDNAKNTVYLQMNSLKPEDTAVYYCAKATRGYRSPYGSIGYYYWGLGTQVTVSS | high polyreactivity |
| QVQLVESGGGLVQAGGSLRLSCAASGSIFGSYAMGWYRQAPGKERELVAAITYSGTSTYYADSVKGRFTISRDNAKNTVYLQMNSLKPEDTAVYYCNAVSRHRSKFDYWGQGTQVTVSS | high polyreactivity |

---

- test name: yeast display, Sf9 membrane polyspecificity reagent, FACS + sequencing; frameworks hold sequencing errors

| item sequence | polyreactivity (PSR sort gate) |
| --- | --- |
| QVQLVESGGGLVQAGGSLRLSCAASGRIFDGYDMGWYRQAPGKERELVAAITSVGSTNYADSVKGRFTISRDNAKNTVYLQMNSLKPEDSAVYYCAAVLYVFYDEYGYWEYFSQYDYWGQGTQVTVSS | low polyreactivity |
| QVQLVESGGGLVQAGGSLRLSCAASGRTFLVYAMGWYRQAPGKERDLVAAITGSGTSTYYADSVKRRFTISRDNGKNTVYLQMNSLKAEDTAVYYCAAEVRLGTYGYDYDYWGQGTQVTVSS | high polyreactivity |
| QVQLVESGGGLVQAGGSLRLSCAASGFIFKDYAMRWYRHSPGKERELVAAITSGVSTNYADSVKGRFTISRDNAKNTVYLQMNSLKPEDTAVSYCNAKARLAGWWLFRLEYWGQGTQVTVSS | low polyreactivity |
| QVQLVESGGGLVQAGGSLRLSCAASGRIFLWYAMGWYRQAPGKERELVAAISSGGSTIYADSVKGRFTISRDNAKNTVYLQMNSLKPEDTAVNYCAAFPTQRRHPLVGFNSWGQGTQVTVSS | high polyreactivity |
| QVQLVESGGGLVQAGGSLRLSCAASGFTFVRNAMGWYRQAPGKERELVAAISYRGGSTYYADSVKGRFTISRDNAKNTVYLQMNSLKPEDTAVYYCAAEAGYSSRRYYWGQGTQVTVSS | high polyreactivity |
| QVQLVESGGGLVQAGGSLRLSCAASGSIFDVYAMGWYRQAPGKERELVAAIDSGGSSTYYADSVKGRFTISRDNAKNTVYLQMNSLKPEDTAVYYCAARPYYSWNYDYWGQGTQVTVSS | low polyreactivity |
| QVQLVESGGGLVQAGGSLRLSCAASGRTFADFTMGWYRQAPGKERELVAAISFSGGSTYYADSVKGRFTISRDNAKNTVYLHMNSLKPEDTAVYYCAAGHKRRAPRYYDWGQGTQVTVSS | high polyreactivity |
| QFQLVESGGGLVQAGGSLRLSCPASGRIFYYYSMGWYRQAPGKEREFVAAITGRGGSTYYADSVKGRFTISRDNAKYTVYLQMNSLKPEDTADYYCNAGQYFEYYGWYSRYGYWGQGTQVTVSS | low polyreactivity |
| QVQLVESGRGLVQAGGSLRLSCAASGRIFRYYAMGWYRQAPGKERELVATITDGGSTSYADSVKGRFTISRDNAKNTVYLQMNSLKPEDTAVYYCARDPLPSYWKVWSRPTFDYWGQGTQVTVSS | low polyreactivity |
| QVQLVESGGGLVQAGGSLRLSCAASGSIFDSNAMGWYRQAPGKERELVAVITGSGGITYYADSVKGRFTISRDNAKNTVYLQMNRLKPEDTAVYYCYADYYLSEDGTWIYDYWGQGTQVTVSS | high polyreactivity |
| QVQLVESGGGLVQAGGSLRLSCAASGSIFYSNAMGWYRQAPGNERELVAAITYRGGRTYYADSVKGRFTISRDNAKNTVYLQKNSLKPEDTAVDYCAKVVRAQALDSIYNGRYDYWGEGTQVTVSS | low polyreactivity |
| QVQHVESGGGLVQAGGSLRLRCAASGSIFYINAMGWYRQAPGQERELVAAITSDGSTYYADSVKGRFTISGDNAKNSVYLQINSLKPEDTAVYYCAADLTSDQYVYYWYWFYSWGQGTQVTVSS | low polyreactivity |
| QVQLVESGGGLVQAGGSLRLSCAASGSILPTNAMGWYRQAPGKERELGASITRSGGSTYYADSVKGRFTISRDNAKNTVYLQMNSLKPEDTAVYYCNARGFTRYTVGRNYWGQGTQVTVSS | high polyreactivity |
| QVQLVESGGGLVQAGGSLRLSCAASGSTFSDYVMGWYRQAPGKEREFVDAISWTGGITYYADSVKGRFTISRDNAKNTVYLQMNSLKPEDTAVYYSAAKRKYYGNGYWGQGTQVTVSS | high polyreactivity |
| QVQLVESGGGLVQAGGSLRLSCAASGSTLSSYDMGWYRQAPGKERELVASISSGGSTYYADSVKGRFTISRDNAKNTVYLQMNSVKPEDTAVYYCLYWSYDWGQGTQVTVSS | low polyreactivity |
| QVQLVESGGGLVQAGGSLRLSCAASGSTFPSYAMGWYRQAPGKERELVAAINRSGGSTYYADSVKGRFTISRDNAKNTVYLQMNSLKPEYTAVYYCATGLTTGGGYYWGQGTQVTVSS | high polyreactivity |
| QDQLVESGGGLVQAGGSLRLRCAASGLILANYAMGCYRPAPVKERELVAAISSSGGSKYYADSVKGRFTISRDNAKHTVYFQMNSLKPEDTAVYDCAAYPLYRRRWTGDYWGQGTQVTVSS | high polyreactivity |
| QVQLVESRGGLVQAGGSLRLSCAASGRIIGYNAMGCYRQAPGKERELVAAINSDGSKNYADSVKGRFTISRDNAKNTVYLQMNSLKPEDTAVYYSIKELYPVGDYEYWGQGSQVTVSS | low polyreactivity |
| QVQLVESGGGLVQAGGSLRLSCAASGVYAMGWYRQAPGQERELVAAITSVGSTNYADSVKGRFTISRDNAKNTVYLQMNSLKPEDTAVYYCNTDRDTDELDYWGQGTQVTVSS | low polyreactivity |
| QVQLVESGGCLVQAGGTLRLSCAASGFIFYHNAMGWYRQAPGKERELVAAISGSGGSTHYADSVKGRFTISRDNAKNSVYLQMNSLKPEDTAVYYCARRFWFHYYGYDYWGQGSQVTVSS | high polyreactivity |
| QVQLVESGGGLVQAGGSLRLSCAASGGTFSPNTMGWYRQAPGKERELVAAISSSGSTSYADSVKGRFTISRDNAKNTVYLQMNSLKPEDTAVYYCNADDTISYYASGFDNYHYWGQGTQVTVSS | low polyreactivity |
